I'd be grateful if you could share measured combination Emax for these entries.
- Test system: NCI-H82 (Small Cell Lung Carcinoma)
- protocol: combination Emax (second highest fraction inhibited in the dose matrix, 72 h); higher = more inhibition; extreme values may be limits of the assay
Answers are plain numbers.

| compound | subject_of_test | combination Emax |
| --- | --- | --- |
| CC(=O)Nc1cccc(-n2c(=O)n(C3CC3)c(=O)c3c(Nc4ccc(I)cc4F)n(C)c(=O)c(C)c32)c1 [Trametinib] + Cc1nc(-c2cn3c(n2)-c2ccc(-c4cnn(C(C)(C)C(N)=O)c4)cc2OCC3)n(C(C)C)n1 [Taselisib] (first compound max 1 µM, 7x7, partner max 10 µM) | NCI-H82 (Small Cell Lung Carcinoma) | 0.243 |
| C=CCn1c(=O)c2cnc(Nc3ccc(N4CCN(C)CC4)cc3)nc2n1-c1cccc(C(C)(C)O)n1 [AZD1775] + CCc1c2c(nc3ccc(O)cc13)-c1cc3c(c(=O)n1C2)COC(=O)[C@]3(O)CC [SN-38] (first compound max 1 µM, partner max 0.3 µM) | NCI-H82 (Small Cell Lung Carcinoma) | 0.965 |
| NC1(C(=O)N[C@@H](CCO)c2ccc(Cl)cc2)CCN(c2ncnc3[nH]ccc23)CC1 [Capivasertib] + CC(=O)c1c(C)c2cnc(Nc3ccc(N4CCNCC4)cn3)nc2n(C2CCCC2)c1=O [Palbociclib] (first compound max 10 µM, 7x7, partner max 10 µM) | NCI-H82 (Small Cell Lung Carcinoma) | 0.836 |
| NC1(C(=O)N[C@@H](CCO)c2ccc(Cl)cc2)CCN(c2ncnc3[nH]ccc23)CC1 [Capivasertib] + CCN(CCO)CCCOc1ccc2c(Nc3cc(CC(=O)Nc4cccc(F)c4)[nH]n3)ncnc2c1 [AZD2811] (first compound max 10 µM, 7x7, partner max 1 µM) | NCI-H82 (Small Cell Lung Carcinoma) | 0.925 |
| N#Cc1cnc(Nc2cc(NC[C@H]3CNCCO3)c(C(F)(F)F)cn2)cn1 [SRA737] + Nc1ccn([C@@H]2O[C@H](CO)[C@@H](O)C2(F)F)c(=O)n1 [Gemcitabine] (first compound max 10 µM, 7x7, partner max 0.3 µM) | NCI-H82 (Small Cell Lung Carcinoma) | 0.978 |

Provide combination Emax for all items below, preserving their order.
1. C[C@@H](c1ccc2nccn2c1)n1nnc2ncc(-c3cnn(C)c3)nc21 [Savolitinib] + CC1(C)CCC(CN2CCN(c3ccc(C(=O)NS(=O)(=O)c4ccc(NCC5CCOCC5)c([N+](=O)[O-])c4)c(Oc4cnc5[nH]ccc5c4)c3)CC2)=C(c2ccc(Cl)cc2)C1 [Venetoclax] (first compound max 1 µM, 7x7, partner max 1 µM)
2. CC1(C)CCC(CN2CCN(c3ccc(C(=O)NS(=O)(=O)c4ccc(NCC5CCOCC5)c([N+](=O)[O-])c4)c(Oc4cnc5[nH]ccc5c4)c3)CC2)=C(c2ccc(Cl)cc2)C1 [Venetoclax] + CS(=O)(=O)CCNCc1ccc(-c2ccc3ncnc(Nc4ccc(OCc5cccc(F)c5)c(Cl)c4)c3c2)o1 [Lapatinib] (first compound max 1 µM, 7x7, partner max 10 µM)

**A:**
1: 0.225; 2: 0.279

Origin of the recorded values: the supplement of paper PMC11061612
